# TARGET ENTITY: Tg244440 (Toxoplasma gondii, UniProt A0A125YNC9)
# Sequence (A0A125YNC9 1-462): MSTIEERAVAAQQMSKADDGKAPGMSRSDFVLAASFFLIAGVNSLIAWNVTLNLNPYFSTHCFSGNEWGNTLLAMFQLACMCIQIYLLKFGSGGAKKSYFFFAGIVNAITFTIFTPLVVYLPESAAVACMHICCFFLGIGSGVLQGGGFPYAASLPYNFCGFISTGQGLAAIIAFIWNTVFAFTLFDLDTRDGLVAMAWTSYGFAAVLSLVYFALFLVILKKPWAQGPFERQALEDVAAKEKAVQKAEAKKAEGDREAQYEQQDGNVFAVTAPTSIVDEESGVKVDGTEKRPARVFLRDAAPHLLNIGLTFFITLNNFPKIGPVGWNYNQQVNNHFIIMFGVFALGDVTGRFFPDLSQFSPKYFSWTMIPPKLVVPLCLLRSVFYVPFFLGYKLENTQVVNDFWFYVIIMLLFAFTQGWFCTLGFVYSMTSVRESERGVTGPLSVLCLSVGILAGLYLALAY
# EXPERIMENTAL PROTOCOL: [3H]-guanine uptake and its inhibition in T. brucei TbNB-KO procyclics expressing Tg244440 (clone F5)
# Format: cell-based
# CONDITION DESCRIPTION: Ki, competition with 50 nM [3H]-guanine, 30 s; Cheng-Prusoff
This section presents compounds with their documented pKi values.
In plain terms, pKi is the concentration in mol/L turned into minus its base-10 logarithm.

Nc1ncnc2[nH]cnc12 ... 3.37
O=c1[nH]c(=O)c2[nH]ccc2[nH]1 ... 4.32
Nc1ncnc2c1ncn2[C@@H]1O[C@H](CO)[C@@H](O)[C@H]1O ... 4.17

# context switch: different compound, same pKi
Find the measured pKi of O=c1[nH]cnc2c1ncn2[C@@H]1O[C@H](CO)[C@@H](O)[C@H]1O with Tg244440 (Toxoplasma gondii, UniProt A0A125YNC9) as test system. 5.39
